# TARGET_OR_SYSTEM: T1, EsCas13d, nuclease-dead (Eubacterium siraeum, UniProt B0MS50, R295A;H300A;R849A;H854A)
# T1 sequence: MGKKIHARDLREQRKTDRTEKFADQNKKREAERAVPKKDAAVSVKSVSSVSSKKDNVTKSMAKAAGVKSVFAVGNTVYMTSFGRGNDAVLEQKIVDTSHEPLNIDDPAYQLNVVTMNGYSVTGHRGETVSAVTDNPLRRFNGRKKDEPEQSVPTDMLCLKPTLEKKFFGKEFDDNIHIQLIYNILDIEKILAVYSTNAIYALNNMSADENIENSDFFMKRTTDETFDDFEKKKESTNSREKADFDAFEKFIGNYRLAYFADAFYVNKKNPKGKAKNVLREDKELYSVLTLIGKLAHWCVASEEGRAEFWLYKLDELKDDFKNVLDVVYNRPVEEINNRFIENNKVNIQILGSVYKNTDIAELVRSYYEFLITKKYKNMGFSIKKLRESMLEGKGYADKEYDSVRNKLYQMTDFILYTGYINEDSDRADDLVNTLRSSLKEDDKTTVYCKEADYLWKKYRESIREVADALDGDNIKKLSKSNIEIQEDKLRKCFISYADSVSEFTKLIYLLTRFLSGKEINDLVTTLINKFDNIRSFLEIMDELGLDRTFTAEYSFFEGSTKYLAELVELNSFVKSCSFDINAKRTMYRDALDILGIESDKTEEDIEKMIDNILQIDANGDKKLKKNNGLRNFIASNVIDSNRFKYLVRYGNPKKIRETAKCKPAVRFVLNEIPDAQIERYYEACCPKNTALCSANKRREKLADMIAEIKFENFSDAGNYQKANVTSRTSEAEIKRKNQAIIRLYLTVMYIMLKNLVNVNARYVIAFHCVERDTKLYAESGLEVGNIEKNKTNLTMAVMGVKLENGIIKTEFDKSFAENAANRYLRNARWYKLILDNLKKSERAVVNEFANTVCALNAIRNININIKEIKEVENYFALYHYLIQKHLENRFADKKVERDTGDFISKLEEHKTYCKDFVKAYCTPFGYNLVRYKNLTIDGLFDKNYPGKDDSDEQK
# METHOD_NOTES: crRNA (strand 1, pre-loaded); Mg2+; 40 mM Tris-HCl pH 7.5, 150 mM NaCl, 6 mM MgCl2, 1 mM DTT, 0.1% Tween-20, 0.2 mg/ml BSA; 25 C; 10 min per concentration, then washed
# EXPERIMENTAL_CONTEXT: tags: His6-TwinStrep-SUMO cleaved; N-terminal SNAP kept (SNAP-Surface 488); label: 3' end held by stalled T7 RNA polymerase
METRIC: pKd
Quick note: pKd values are minus log10 of concentrations in mol/L.

Fill in pKd for record target 1 MT 5'PFS GUA 3'PFS GGC (mixed) RNA 1: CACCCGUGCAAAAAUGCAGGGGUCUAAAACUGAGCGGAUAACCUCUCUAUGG RNA 2: GGGAAUGGAUCCACAUCUACGAAUUCGUACCAUAGAGAGGUUAUCCGCUCAGGCAGAUCGGAAGAGCACACGU
8.14

Fill in pKd for record target 1 MT 5'PFS ACG 3'PFS ACA (mixed) RNA 1: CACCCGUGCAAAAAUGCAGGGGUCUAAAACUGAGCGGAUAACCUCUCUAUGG RNA 2: GGGAAUGGAUCCACAUCUACGAAUUCACGCCAUAGAGAGGUUAUCCGCUCAACAAGAUCGGAAGAGCACACGU
7.60
